molecular target: HLA-A0201 (human); experiment: competition vs 125I probe peptide, purified HLA-A*0201
Readout type: pKi
The read-out pKi is expressed as -log10 of concentration in moles per litre.

| Binder | pKi |
| --- | --- |
| NIIMYAPTL (modifications not checked) | 7.15 |
| TLWARMILM (modifications not checked) | 8.10 |
| RLYIGGPLT (modifications not checked) | 6.27 |

Now turn to the next binder.
Returns the measured pKi for the input binder. Input: YLFNWAVRT (modifications not checked)
7.54
